These entries and their values trace back to patent US20090118184A1.

# Target Of Assay: T1, factor VIIIa A1/A3C1C2 dimer, Glu1984Val (human, UniProt P00451 20-391; P00451 1709-2351)
# T1 sequence 1: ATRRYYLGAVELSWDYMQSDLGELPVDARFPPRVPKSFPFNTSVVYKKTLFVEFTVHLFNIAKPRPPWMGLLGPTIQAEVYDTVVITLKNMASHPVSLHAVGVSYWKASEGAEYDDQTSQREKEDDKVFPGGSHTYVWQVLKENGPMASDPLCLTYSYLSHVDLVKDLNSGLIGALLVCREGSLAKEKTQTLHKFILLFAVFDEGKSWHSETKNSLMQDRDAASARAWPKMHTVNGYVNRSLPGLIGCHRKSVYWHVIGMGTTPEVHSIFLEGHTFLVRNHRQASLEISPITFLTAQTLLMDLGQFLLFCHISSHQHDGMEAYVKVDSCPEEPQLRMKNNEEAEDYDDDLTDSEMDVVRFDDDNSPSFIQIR
# T1 sequence 2: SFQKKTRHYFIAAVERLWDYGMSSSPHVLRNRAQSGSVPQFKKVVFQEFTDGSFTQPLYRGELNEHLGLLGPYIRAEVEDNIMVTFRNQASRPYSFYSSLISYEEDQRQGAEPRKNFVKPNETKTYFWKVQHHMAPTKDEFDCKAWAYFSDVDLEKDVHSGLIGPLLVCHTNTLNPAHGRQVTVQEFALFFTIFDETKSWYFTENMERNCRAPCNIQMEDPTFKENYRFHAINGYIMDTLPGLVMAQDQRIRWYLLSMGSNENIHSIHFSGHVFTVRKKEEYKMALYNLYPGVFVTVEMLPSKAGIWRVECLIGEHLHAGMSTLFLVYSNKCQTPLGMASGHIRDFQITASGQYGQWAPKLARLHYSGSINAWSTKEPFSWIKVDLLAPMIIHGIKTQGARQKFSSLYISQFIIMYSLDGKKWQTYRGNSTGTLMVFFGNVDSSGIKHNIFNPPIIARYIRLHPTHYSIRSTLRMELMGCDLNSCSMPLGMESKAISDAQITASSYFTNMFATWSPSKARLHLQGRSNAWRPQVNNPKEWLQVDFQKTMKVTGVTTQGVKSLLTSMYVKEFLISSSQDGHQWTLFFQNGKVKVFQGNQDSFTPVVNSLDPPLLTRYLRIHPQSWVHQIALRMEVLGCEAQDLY
# Test Name: cell-based or functional assay
Measured Endpoint: Decay rate, Factor VIIIa (1.5 nM factor VIIIa, factor IXa absent) (min⁻¹)
Give bare numbers, in min⁻¹.

Record excerpt, results attached:
Binder: factor VIIIa A2 subunit, wild type (other) SVAKKHPKTWVHYIAAEEEDWDYAPLVLAPDDRSYKSQYLNNGPQRIGRKYKKVRFMAYTDETFKTREAIQHESGILGPLLYGEVGDTLLIIFKNQASRPYNIYPHGITDVRPLYSRRLPKGVKHLKDFPILPGEIFKYKWTVTVEDGPTKSDPRCLTRYYSSFVNMERDLASGLIGPLLICYKESVDQRGNQIMSDKRNVILFSVFDENRSWYLTENIQRFLPNPAGVQLEDPEFQASNIMHSINGYVFDSLQLSVCLHEVAYWYILSIGAQTDFLSVFFSGYTFKHKMVYEDTLTLFPFSGETVFMSMENPGLWILGCHNSDFRNRGMTALLKVSSCDKNTGDYYEDSYEDISAYLLSKNNAIEPR
Readout Number: 0.0471

Binder: factor VIIIa A2 subunit, Asp519Val (other) SVAKKHPKTWVHYIAAEEEDWDYAPLVLAPDDRSYKSQYLNNGPQRIGRKYKKVRFMAYTDETFKTREAIQHESGILGPLLYGEVGDTLLIIFKNQASRPYNIYPHGITDVRPLYSRRLPKGVKHLKDFPILPGEIFKYKWTVTVEVGPTKSDPRCLTRYYSSFVNMERDLASGLIGPLLICYKESVDQRGNQIMSDKRNVILFSVFDENRSWYLTENIQRFLPNPAGVQLEDPEFQASNIMHSINGYVFDSLQLSVCLHEVAYWYILSIGAQTDFLSVFFSGYTFKHKMVYEDTLTLFPFSGETVFMSMENPGLWILGCHNSDFRNRGMTALLKVSSCDKNTGDYYEDSYEDISAYLLSKNNAIEPR
Readout Number: 0.0262

Binder: factor VIIIa A2 subunit, D519V and E665V (other) SVAKKHPKTWVHYIAAEEEDWDYAPLVLAPDDRSYKSQYLNNGPQRIGRKYKKVRFMAYTDETFKTREAIQHESGILGPLLYGEVGDTLLIIFKNQASRPYNIYPHGITDVRPLYSRRLPKGVKHLKDFPILPGEIFKYKWTVTVEVGPTKSDPRCLTRYYSSFVNMERDLASGLIGPLLICYKESVDQRGNQIMSDKRNVILFSVFDENRSWYLTENIQRFLPNPAGVQLEDPEFQASNIMHSINGYVFDSLQLSVCLHEVAYWYILSIGAQTDFLSVFFSGYTFKHKMVYVDTLTLFPFSGETVFMSMENPGLWILGCHNSDFRNRGMTALLKVSSCDKNTGDYYEDSYEDISAYLLSKNNAIEPR
Readout Number: 0.0227

Give Decay rate, Factor VIIIa (1.5 nM factor VIIIa, factor IXa absent) for each listed item.
1. factor VIIIa A2 subunit, Glu665Val (other) SVAKKHPKTWVHYIAAEEEDWDYAPLVLAPDDRSYKSQYLNNGPQRIGRKYKKVRFMAYTDETFKTREAIQHESGILGPLLYGEVGDTLLIIFKNQASRPYNIYPHGITDVRPLYSRRLPKGVKHLKDFPILPGEIFKYKWTVTVEDGPTKSDPRCLTRYYSSFVNMERDLASGLIGPLLICYKESVDQRGNQIMSDKRNVILFSVFDENRSWYLTENIQRFLPNPAGVQLEDPEFQASNIMHSINGYVFDSLQLSVCLHEVAYWYILSIGAQTDFLSVFFSGYTFKHKMVYVDTLTLFPFSGETVFMSMENPGLWILGCHNSDFRNRGMTALLKVSSCDKNTGDYYEDSYEDISAYLLSKNNAIEPR
2. factor VIIIa A2 subunit, Asp519Ala (other) SVAKKHPKTWVHYIAAEEEDWDYAPLVLAPDDRSYKSQYLNNGPQRIGRKYKKVRFMAYTDETFKTREAIQHESGILGPLLYGEVGDTLLIIFKNQASRPYNIYPHGITDVRPLYSRRLPKGVKHLKDFPILPGEIFKYKWTVTVEAGPTKSDPRCLTRYYSSFVNMERDLASGLIGPLLICYKESVDQRGNQIMSDKRNVILFSVFDENRSWYLTENIQRFLPNPAGVQLEDPEFQASNIMHSINGYVFDSLQLSVCLHEVAYWYILSIGAQTDFLSVFFSGYTFKHKMVYEDTLTLFPFSGETVFMSMENPGLWILGCHNSDFRNRGMTALLKVSSCDKNTGDYYEDSYEDISAYLLSKNNAIEPR

A:
0.0671
0.0319
